Each entry below carries its reported Kd.
# tested.target: T1, PUF4 RNA-binding domain (Saccharomyces cerevisiae, UniProt P25339 537-888)
# T1 sequence: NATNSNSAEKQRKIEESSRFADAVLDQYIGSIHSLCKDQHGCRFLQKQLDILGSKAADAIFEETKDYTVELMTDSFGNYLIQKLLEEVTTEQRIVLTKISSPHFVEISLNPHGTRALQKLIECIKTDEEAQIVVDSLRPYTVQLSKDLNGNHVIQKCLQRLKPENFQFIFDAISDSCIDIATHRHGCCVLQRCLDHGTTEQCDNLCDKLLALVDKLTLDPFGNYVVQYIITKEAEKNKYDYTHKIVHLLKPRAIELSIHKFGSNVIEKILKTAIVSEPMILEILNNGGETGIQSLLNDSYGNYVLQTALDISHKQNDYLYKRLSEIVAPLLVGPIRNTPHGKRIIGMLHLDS
# assay.comment: Mg; RNA-MaP; 20 mM Na-HEPES pH 7.4, 30 mM KOAc, 0.75 mM MgCl2, 0.1% Tween-20, 5% glycerol, 0.1 mg/mL BSA, 2 mM DTT; 25 C; 0.0125-409.6 nM protein
# experimental.conditions: tags: N-His6-TEV cleaved; C-SNAP kept, Cy3B-labelled; label: tethered on chip by stalled RNA polymerase
Report only the number, with the unit nM understood.

Previously resolved entries follow.
binder	units.label	Kd
UCUCUUUGUAUACUUCUCUU (ssRNA) [Ic_S1_P3E.1_K3.1_C3.1_H3.1_A3.1_F3.1_[T7C]_[A8T]_T3.1]	nM	5.59
Id_ii_S4_P4E.2_K4.1_C4.2_[C-2T]_[T-1A]_H4.1_A4.1_F4.1_T4.2_[T11C] (ssRNA) RNA: UUUGACAACUGAUCGUUCUUUCUUAUGUAUAUUAGCUUCUUUCUCGAUCAGUUGUCUUU	nM	0.368
Ib_S4_P3E.1_K3.1_C3.1_H3.1_[G2C]_[A4T]_A3.1_F3.1_T3.1 (ssRNA) RNA: UUUGACAACUGAUCGUUCUUUCUUCUUUAUAUUCUUUCUCGAUCAGUUGUCUUU	nM	1800
Id_ii_S2_P5E.2_K5.1_C5.2_H5.1_A5.1_F5.1_T5.2_[T11G]_[A12C] (ssRNA) RNA: UUUGAUUAAUAUGAUAUCGUUCUUUCUCUUGUAUUAUUAGCUUCUUUCUCGAUAUCAUAUUAAUCUUU	nM	1.71
UCUCUUUGUAUAUCUCUCUU (ssRNA) [Ia_S1_P3E.1_K3.1_C3.1_H3.1_A3.1_F3.1_[A8C]_T3.1]	nM	14.8
Id_ii_S4_P5E.3_K5.2_C5.2_H5.2_A5.1_F5.1_T5.2_[A12T] (ssRNA) RNA: UUUGACAACUGAUCGUUCUUUCUCUUAUAUUAUUAUUUUCUUUCUCGAUCAGUUGUCUUU	nM	168
ACAAACUCUAUAUAUAAAACAAAC (ssRNA) [Id_ii_S3_P3E.3_K3.2_C3.2_[C-2T]_[T-1C]_H3.2_A3.1_F3.1_T3.2_[T9A]]	nM	932
UCUCUUUGUUUAUAUCUCUU (ssRNA) [Ia_S1_P3E.1_K3.1_C3.1_H3.1_[A4T]_A3.1_F3.1_T3.1]	nM	478
Ic_S2_P4E.1_K4.1_C4.1_H4.1_A4.1_[T5C]_[A6T]_F4.1_[T8G]_[A9G]_T4.1 (ssRNA) RNA: UUUGAUUAAUAUGAUAUCGUUCUUUCUUGUACUUGGUUCUUUCUCGAUAUCAUAUUAAUCUUU	nM	430
UCUCUUUGUACUAUGAUCUCUU (ssRNA) [Ib_S1_P5E.1_K5.1_C5.1_H5.1_A5.1_[T5C]_F5.1_[T9G]_T5.1]	nM	13.2

Kd for Ic_S4_P5E.1_K5.1_C5.1_H5.1_A5.1_[T6A]_[A7C]_F5.1_[T8C]_[T9C]_[A10G]_T5.1 (ssRNA) RNA: UUUGACAACUGAUCGUUCUUUCUUGUAUACCCGUUCUUUCUCGAUCAGUUGUCUUU is 117

Kd for Id_ii_S2_P3E.4_K3.3_C3.2_[T-1A]_H3.3_A3.1_F3.1_T3.2_[T9C]_[A10C] (ssRNA) RNA: UUUGAUUAAUAUGAUAUCGUUCUUUCUCAACACUAUACCUUCUUUCUCGAUAUCAUAUUAAUCUUU is 2100

Kd for Ic_S4_P5E.1_K5.1_C5.1_H5.1_A5.1_[T6A]_[A7C]_F5.1_[T8C]_[T9G]_[A10T]_T5.1 (ssRNA) RNA: UUUGACAACUGAUCGUUCUUUCUUGUAUACCGUUUCUUUCUCGAUCAGUUGUCUUU is 37.8

Kd for ACAAACUGUCCUAUUAACAAAC (ssRNA) [Ib_S3_P5E.1_K5.1_C5.1_H5.1_[A4C]_A5.1_[T5C]_F5.1_T5.1] is 545

Kd for UCUCUUAAUGUAUAUAAUUCUCUU (ssRNA) [Id_ii_S1_P3E.2_K3.1_C3.2_[C-2A]_[T-1A]_H3.1_A3.1_F3.1_T3.2_[T9A]_[A10T]] is 8.64

Kd for UCUCUUGCACACUUAUUAUUUCUCUU (ssRNA) [Id_ii_S1_P5E.4_K5.3_C5.2_[C-2G]_[T-1C]_H5.3_A5.1_F5.1_T5.2_[A12T]] is 1420

Kd for Ic_S4_P4E.1_K4.1_C4.1_H4.1_A4.1_[T5C]_[A6C]_[T7C]_F4.1_[T8G]_[A9G]_T4.1 (ssRNA) RNA: UUUGACAACUGAUCGUUCUUUCUUGUACCCGGUUCUUUCUCGAUCAGUUGUCUUU is 1370
